Taken from paper PMC9896003.

# test details: Serum pharmacokinetic study, single oral gavage
# Type: in vivo, C57BL/6J mice
# applied conditions: male, mouse, serum, po; 10mg/kg, orally once, normal C57BL/6J mice; read-out: MRT(0-t)
experimental readout: MRT last (h)
Answer in h, number only, no unit symbol.

Which MRT last is listed for `CC(C)c1cc(Oc2c(Cl)cc(-n3nc(C#N)c(=O)[nH]c3=O)cc2Cl)n[nH]c1=O` ?
5.8

###

# test details: Serum pharmacokinetic study, single oral gavage
# Format: in vivo, C57BL/6J mice
# applied conditions: male, mouse, serum, po; 3mg/kg, orally once, normal C57BL/6J mice; read-out: MRT(0-t)
experimental readout: MRT last (h)
Answer in h, number only, no unit symbol.

Which MRT last is listed for `CC(C)c1cc(Oc2c(Cl)cc(-n3nc(C#N)c(=O)[nH]c3=O)cc2Cl)n[nH]c1=O` ?
6.3

###

# test details: Serum pharmacokinetic study, single oral gavage
# Format: in vivo, C57BL/6J mice
# applied conditions: male, mouse, serum, po; 3mg/kg, orally once, normal C57BL/6J mice
# Experimental: Then, each group was subdivided into three groups for blood extraction: Group 1, sample collection after 0.5 hours and 2 hours of treatment (n=3); Group 2, sample collection after 1 hour and 4 hours of treatment (n=3); and Group 3, sample collection after 8 hours and 24 hours of treatment (n=3). […]
experimental readout: AUC(0-t) (ng·h/mL)
Answer in ng·h/mL, number only, no unit symbol.

Which AUC(0-t) is listed for CC(C)c1cc(Oc2c(Cl)cc(-n3nc(C#N)c(=O)[nH]c3=O)cc2Cl)n[nH]c1=O [MGL-3196] ?
9330

###

# test details: Tissue distribution study (heart, liver, kidney, blood) by LC-MS/MS
# Format: in vivo, C57BL/6J mice
# applied conditions: C57BL/6J, mouse, kidney/blood; 10 mg/kg oral, 2h; read-out: Ratio (tissue/blood), Kidney
experimental readout: Kp at 2 h

Which Kp at 2 h is listed for CC(C)c1cc(Oc2c(Cl)cc(-n3nc(C#N)c(=O)[nH]c3=O)cc2Cl)n[nH]c1=O [MGL-3196] ?
0.572

###

# test details: Tissue distribution study (heart, liver, kidney, blood) by LC-MS/MS
# Format: in vivo, C57BL/6J mice
# applied conditions: male, C57BL/6J, mouse, liver / blood; 3 mg/kg oral, 4h; read-out: Ratio (tissue/blood), Liver
experimental readout: Kp at 4 h
Reply: number alone, nothing else.

Which Kp at 4 h is listed for `CC(C)c1cc(Oc2c(Cl)cc(-n3nc(C#N)c(=O)[nH]c3=O)cc2Cl)n[nH]c1=O` ?
6.17

###

# test details: Tissue distribution study (heart, liver, kidney, blood) by LC-MS/MS
# Type: in vivo, C57BL/6J mice
# applied conditions: male, C57BL/6J, mouse, kidney / blood; 3 mg/kg oral, 4h; read-out: Ratio (tissue/blood), Kidney
experimental readout: Kp at 4 h
Reply: number alone, nothing else.

Which Kp at 4 h is listed for `CC(C)c1cc(Oc2c(Cl)cc(-n3nc(C#N)c(=O)[nH]c3=O)cc2Cl)n[nH]c1=O` ?
0.617

###

# test details: Tissue distribution study (heart, liver, kidney, blood) by LC-MS/MS
# Format: in vivo, C57BL/6J mice
# applied conditions: C57BL/6J, mouse, heart/blood; 10 mg/kg oral, 4h; read-out: Ratio (tissue/blood), Heart
# Description: To detect the tissue distribution of drugs, the heart, liver, and kidney of mice in Group 1, Group 2, and Group 3 were collected at 2 hours, 4 hours, and 24 hours, respectively. Then, 1 ml of 1X PBS was added for tissue homogenization. […] The protein of tissue samples was precipitated by vortex oscillation for 5 min and centrifuged at 13,000 rpm for 10 min, and 150 μL of supernatant was collected and determined by LC−MS/MS procedures.
experimental readout: Kp at 4 h
Reply: number alone, nothing else.

Which Kp at 4 h is listed for `CC(C)c1cc(Oc2c(Cl)cc(-n3nc(C#N)c(=O)[nH]c3=O)cc2Cl)n[nH]c1=O` ?
0.112

###

# test details: Serum pharmacokinetic study, single oral gavage
# Type: in vivo, C57BL/6J mice
# applied conditions: male, mouse, serum, po; 10mg/kg, orally once, normal C57BL/6J mice
# Method: Then, each group was subdivided into three groups for blood extraction: Group 1, sample collection after 0.5 hours and 2 hours of treatment (n=3); Group 2, sample collection after 1 hour and 4 hours of treatment (n=3); and Group 3, sample collection after 8 hours and 24 hours of treatment (n=3). […]
experimental readout: half-life

Which half-life is listed for `CC(C)c1cc(Oc2c(Cl)cc(-n3nc(C#N)c(=O)[nH]c3=O)cc2Cl)n[nH]c1=O` ?
3 h

###

# test details: Tissue distribution study (heart, liver, kidney, blood) by LC-MS/MS
# Assay type: in vivo, C57BL/6J mice
# applied conditions: C57BL/6J, mouse, heart/blood; 10 mg/kg oral, 2h; read-out: Ratio (tissue/blood), Heart
experimental readout: Kp at 2 h
Reply: number alone, nothing else.

Which Kp at 2 h is listed for CC(C)c1cc(Oc2c(Cl)cc(-n3nc(C#N)c(=O)[nH]c3=O)cc2Cl)n[nH]c1=O [MGL-3196] ?
0.113

###

# test details: Tissue distribution study (heart, liver, kidney, blood) by LC-MS/MS
# Type: in vivo, C57BL/6J mice
# applied conditions: C57BL/6J, mouse, liver/blood; 10 mg/kg oral, 4h; read-out: Ratio (tissue/blood), Liver
experimental readout: Kp at 4 h

Which Kp at 4 h is listed for CC(C)c1cc(Oc2c(Cl)cc(-n3nc(C#N)c(=O)[nH]c3=O)cc2Cl)n[nH]c1=O [MGL-3196] ?
4.63

###

# test details: Serum pharmacokinetic study, single oral gavage
# Assay type: in vivo, C57BL/6J mice
# applied conditions: male, mouse, serum, po; 10mg/kg, orally once, normal C57BL/6J mice
experimental readout: Tmax (h)
Answer in h, number only, no unit symbol.

Which Tmax is listed for CC(C)c1cc(Oc2c(Cl)cc(-n3nc(C#N)c(=O)[nH]c3=O)cc2Cl)n[nH]c1=O [MGL-3196] ?
2

###

# test details: Tissue distribution study (heart, liver, kidney, blood) by LC-MS/MS
# Type: in vivo, C57BL/6J mice
# applied conditions: C57BL/6J, mouse, liver/blood; 10 mg/kg oral, 24h; read-out: Ratio (tissue/blood), Liver
experimental readout: Kp at 24 h
Reply: number alone, nothing else.

Which Kp at 24 h is listed for `CC(C)c1cc(Oc2c(Cl)cc(-n3nc(C#N)c(=O)[nH]c3=O)cc2Cl)n[nH]c1=O` ?
4.8

###

# test details: Tissue distribution study (heart, liver, kidney, blood) by LC-MS/MS
# Type: in vivo, C57BL/6J mice
# applied conditions: C57BL/6J, mouse, liver/blood; 10 mg/kg oral, 2h; read-out: Ratio (tissue/blood), Liver
experimental readout: Kp at 2 h

Which Kp at 2 h is listed for `CC(C)c1cc(Oc2c(Cl)cc(-n3nc(C#N)c(=O)[nH]c3=O)cc2Cl)n[nH]c1=O` ?
4.59

###

# test details: Tissue distribution study (heart, liver, kidney, blood) by LC-MS/MS
# Format: in vivo, C57BL/6J mice
# applied conditions: male, C57BL/6J, mouse, liver / blood; 3 mg/kg oral, 24h; read-out: Ratio (tissue/blood), Liver
# Procedure: To detect the tissue distribution of drugs, the heart, liver, and kidney of mice in Group 1, Group 2, and Group 3 were collected at 2 hours, 4 hours, and 24 hours, respectively. Then, 1 ml of 1X PBS was added for tissue homogenization. […] The protein of tissue samples was precipitated by vortex oscillation for 5 min and centrifuged at 13,000 rpm for 10 min, and 150 μL of supernatant was collected and determined by LC−MS/MS procedures.
experimental readout: Kp at 24 h
Reply: number alone, nothing else.

Which Kp at 24 h is listed for `CC(C)c1cc(Oc2c(Cl)cc(-n3nc(C#N)c(=O)[nH]c3=O)cc2Cl)n[nH]c1=O` ?
3.17

###

# test details: Serum pharmacokinetic study, single oral gavage
# Type: in vivo, C57BL/6J mice
# applied conditions: male, mouse, serum, po; 10mg/kg, orally once, normal C57BL/6J mice
experimental readout: Cmax (ng/mL)
Answer in ng/mL, number only, no unit symbol.

Which Cmax is listed for `CC(C)c1cc(Oc2c(Cl)cc(-n3nc(C#N)c(=O)[nH]c3=O)cc2Cl)n[nH]c1=O` ?
4870
